These entries and their values trace back to patent US20210032299A1.

biological target: human glucagon receptor (human, UniProt P47871 26-477); test: cell-based or functional assay
Sequence (P47871 26-477): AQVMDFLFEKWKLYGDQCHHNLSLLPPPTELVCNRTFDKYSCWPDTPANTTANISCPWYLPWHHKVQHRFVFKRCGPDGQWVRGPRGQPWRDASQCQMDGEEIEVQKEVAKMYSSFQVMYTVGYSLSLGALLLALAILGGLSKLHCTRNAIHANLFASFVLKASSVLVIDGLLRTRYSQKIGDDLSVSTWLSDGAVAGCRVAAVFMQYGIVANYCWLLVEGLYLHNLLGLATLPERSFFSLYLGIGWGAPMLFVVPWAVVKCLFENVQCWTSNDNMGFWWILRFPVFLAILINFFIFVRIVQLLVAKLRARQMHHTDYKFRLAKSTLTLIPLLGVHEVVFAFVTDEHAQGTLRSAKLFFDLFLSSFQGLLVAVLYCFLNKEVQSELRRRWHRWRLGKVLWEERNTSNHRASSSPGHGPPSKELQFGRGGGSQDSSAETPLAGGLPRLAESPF
No end group written: not given here.
QUANTITY: hGcgR cAMP Rel EC50

Provide measured hGcgR cAMP Rel EC50 value, entry: YXEGTFISDYSILLDKKAQXDFVNWLLAGGPSSGAPPPS (D-Ala2; K17((2-[2-(2-Amino-ethoxy)-ethoxy]-acetyl)2-(γ-Glu)-CO-(CH2)16-CO2H); Aib20; C-terminal amide) [Example 19]
> 5 µM

Output measured hGcgR cAMP Rel EC50 for this item: YXEGTFISDYSILLDKKAQXEFVNWLLEGGPSSGAPPPS (D-Ala2; K17((2-[2-(2-Amino-ethoxy)-ethoxy]-acetyl)2-(γ-Glu)-CO-(CH2)16-CO2H); Aib20; C-terminal amide) [Example 28]
> 5 µM

Tell me measured hGcgR cAMP Rel EC50 for YXEGTFISDYSILLDKKAQXDFVNWLLAQGPSSGAPPPS (D-Ala2; K17((2-[2-(2-Amino-ethoxy)-ethoxy]-acetyl)2-(γ-Glu)-CO-(CH2)18-CO2H); Aib20; C-terminal amide) [Example 1] please.
0.575 µM

Assign hGcgR cAMP Rel EC50 to the following record: YXEGTFISDYSILLDKKAQXEFVEWLLAGGPSSGAPPPS (D-Ala2; K17((2-[2-(2-Amino-ethoxy)-ethoxy]-acetyl)2-(γ-Glu)-CO-(CH2)16-CO2H); Aib20; C-terminal amide) [Example 29]
> 5 µM

Return hGcgR cAMP Rel EC50 (reported value) for this binder: YXEGTFISDYSILLDKKAQXDFVEWLLAQGPSSGAPPPS (D-Ala2; K17((2-[2-(2-Amino-ethoxy)-ethoxy]-acetyl)2-(γ-Glu)-CO-(CH2)16-CO2H); Aib20; C-terminal amide) [Example 16]
> 5 µM

Here is another binder to look at.
Hello, please tell me recorded hGcgR cAMP Rel EC50 for this one: YAEGTFISDYSIAMDKIHQQDFVNWLLAQKGKKNDWKHNITQ-NH2 (ligand) [GIP(1-42)-NH2]
> 5 µM
